In this section, each of the compounds is paired with its reported Ki.
- assay-target: human α2δ-1 subunit of Cav2.2 calcium channel (Homo sapiens (Human))
- test-description: Binding assay to human α2δ-1 subunit of Cav2.2 calcium channel ([3H]-Gabapentin)
- protocol-conditions: binding to α2δ-1, [3H]-Gabapentin; read-out: Ki (nM) α2δ-1

Example cases with answers are listed next.
CSc1ncc2c(n1)N(C)CCN(c1cccc(-n3cc(CN(Cc4ccccc4)C(=O)OC(C)(C)C)nn3)c1)C2=O [Example 41] :: > 3000 nM
CSc1ncc2c(n1)N(C)CCN(c1cccc(OC(CCN(C)C(=O)OC(C)(C)C)c3ccccn3)c1)C2=O (stereo not shown) [Example 52] :: > 3000 nM
CSc1ncc2c(n1)N(C)CCN(c1cccc(OC(CCN(C)C(=O)OC(C)(C)C)c3cccs3)c1)C2=O (stereo not shown) [Example 12] :: > 3000 nM
CNCC[C@@H](Oc1cccc(N2CCN(C)c3nc(SC)ncc3C2=O)c1)c1ccccc1 [Example 152] :: 500 to 3000 nM
Cc1nnc(-c2cccc(N3CCN(C)c4nc(NCc5ccccc5)ncc4C3=O)c2)o1 [Example 102] :: > 3000 nM

Incoming: Entry under review: CCNc1ncc2c(n1)N(C)CCN(c1cccc(CCN3CCC(c4ccccc4)(N(C)C)CC3)c1)C2=O [Example 438] . Reported Ki?
Outgoing: 500 to 3000 nM

Incoming: Quick one: CNCC[C@@H](OCc1cccc(N2CCN(C)c3nc(N(C)C)ncc3C2=O)c1)c1ccccc1 [Example 196]
Outgoing: 500 to 3000 nM

====

Below: a set of entries, each annotated with reported Ki.
- assay-target: human α2δ-1 subunit of Cav2.2 calcium channel (Homo sapiens (Human), UniProt P54289)
- Sequence (P54289 25-1103): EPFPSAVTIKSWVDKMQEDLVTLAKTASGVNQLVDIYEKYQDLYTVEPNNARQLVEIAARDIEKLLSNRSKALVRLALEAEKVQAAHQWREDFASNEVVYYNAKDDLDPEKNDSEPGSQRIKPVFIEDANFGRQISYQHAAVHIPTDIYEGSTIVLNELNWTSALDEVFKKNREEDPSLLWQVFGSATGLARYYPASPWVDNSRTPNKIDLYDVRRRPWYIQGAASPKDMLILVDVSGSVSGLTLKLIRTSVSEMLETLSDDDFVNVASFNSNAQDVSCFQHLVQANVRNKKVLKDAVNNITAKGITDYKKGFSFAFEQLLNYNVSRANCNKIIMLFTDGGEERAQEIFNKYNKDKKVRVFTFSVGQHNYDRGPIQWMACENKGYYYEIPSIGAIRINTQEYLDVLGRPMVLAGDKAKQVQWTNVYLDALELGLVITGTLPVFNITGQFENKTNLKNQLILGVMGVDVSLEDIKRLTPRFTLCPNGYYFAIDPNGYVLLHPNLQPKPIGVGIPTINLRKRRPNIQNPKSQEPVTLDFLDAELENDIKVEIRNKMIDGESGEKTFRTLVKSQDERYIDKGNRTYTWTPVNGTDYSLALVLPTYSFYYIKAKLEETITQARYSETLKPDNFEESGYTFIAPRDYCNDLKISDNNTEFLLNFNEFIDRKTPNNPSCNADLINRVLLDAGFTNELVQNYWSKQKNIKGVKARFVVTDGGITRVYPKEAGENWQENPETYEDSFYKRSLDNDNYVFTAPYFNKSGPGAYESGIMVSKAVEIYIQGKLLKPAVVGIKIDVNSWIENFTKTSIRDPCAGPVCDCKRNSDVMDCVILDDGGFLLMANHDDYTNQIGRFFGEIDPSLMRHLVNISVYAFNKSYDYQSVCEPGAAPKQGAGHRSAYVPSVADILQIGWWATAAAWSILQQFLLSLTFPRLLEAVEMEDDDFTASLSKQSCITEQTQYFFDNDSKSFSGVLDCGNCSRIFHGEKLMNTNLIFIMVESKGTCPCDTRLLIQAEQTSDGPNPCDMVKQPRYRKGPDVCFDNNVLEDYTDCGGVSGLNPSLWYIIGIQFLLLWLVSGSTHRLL
- test-description: Binding assay to human α2δ-1 subunit of Cav2.2 calcium channel ([3H]-Gabapentin)
- protocol-conditions: binding to α2δ-1, [3H]-Gabapentin; read-out: Ki (nM) α2δ-1

The cases that follow already have their Ki on record.
CCNc1cc2c(cn1)C(=O)N(c1cccc(-c3nnc(C)n3CC)c1)CCN2C [Example 55] :: 500 to 3000 nM
CCNc1ncc2c(n1)N(C)CCN(c1cccc(-n3cc(CN(C)CCOCCO)nn3)c1)C2=O [Example 273] :: 500 to 3000 nM
CSc1ncc2c(n1)N(C)CCN(c1cccc(OCCCN(C)C(=O)OC(C)(C)C)c1)C2=O [Example 20] :: > 3000 nM
CNCCC(OCc1cccc(CN2CCN(C)c3nc(SC)ncc3C2=O)c1)c1ccccc1 (stereo not shown) [Example 367] :: > 3000 nM
CCNc1ncc2c(n1)N(C)CCN(c1cccc(COC(CCNCCF)c3cccs3)c1)C2=O (stereo not shown) [Example 345] :: 100 to 500 nM
CCNc1ncc2c(n1)N(C)CCN(c1cccc(O)c1)C2=O [Example 177] :: > 3000 nM
CCNc1ncc2c(n1)N(C)CCN(c1cccc(-n3cc(CN4CCC(c5ccccc5)(N(C)C)CC4)cn3)c1)C2=O [Example 294] :: 500 to 3000 nM
CCN1CCN(Cc2ccc(O[C@@H](CCNC)c3cccs3)cc2)C(=O)c2cnc(OC)nc21 [Example 395] :: 100 to 500 nM

Incoming: Reported Ki for CNCC[C@H](Oc1ccc(CN2CCN(C)c3cc(N)ncc3C2=O)cc1)c1cccs1 [Example 305] : what is it?
Outgoing: 100 to 500 nM

Incoming: Param item: Cc1cc2c(cn1)C(=O)N(Cc1ccc(O[C@@H](CCN(C)C(=O)OCC[Si](C)(C)C)c3cccs3)cc1)CCN2C [Example 301]
Outgoing: > 3000 nM

Incoming: Quick one: CNCCC(OCc1cccc(N2CCN(C)c3nc(SC)ncc3C2=O)c1)C(C)C (stereo not shown) [Example 190]
Outgoing: > 3000 nM

Incoming: Again, but for CCNc1ncc2c(n1)N(C)CCN(c1cccc(-n3cc(CCN(C)Cc4ccccc4)nn3)c1)C2=O [Example 247]
Outgoing: 500 to 3000 nM

Incoming: Let us now turn to CCNc1ncc2c(n1)N(C)CCN(c1cccc(C3CCN(Cc4ccccc4)CC3)c1)C2=O [Example 259]
Outgoing: 100 to 500 nM

Incoming: Then CSc1ncc2c(n1)N(C)CCN(Cc1ccc(OC(CN(C)C(=O)OC(C)(C)C)c3ccccc3)cc1)C2=O (stereo not shown) [Example 63] ?
Outgoing: > 3000 nM

Incoming: Also need CCNc1ncc2c(n1)N(C)CCN(c1cccc(C(=O)O)c1)C2=O [Example 313] , thanks.
Outgoing: > 3000 nM

Incoming: Moving on to CNc1ncc2c(n1)N(C)CCN(c1cccc(CO[C@H](CCN(C)C(=O)OC(C)(C)C)c3ccccc3)c1)C2=O [Example 132]
Outgoing: > 3000 nM

Incoming: Lookup CSc1ncc2c(n1)N(C)CCN(c1cccc(CO[C@H](CCN(C)C(=O)OC(C)(C)C)c3ccccc3)c1)C2=O [Example 10]
Outgoing: > 3000 nM

Incoming: Please do the same for CCNc1ncc2c(n1)N(C)CCN(c1cccc(COC3(c4ccccc4)CCN(C(=O)OC(C)(C)C)CC3)c1)C2=O [Example 96] as well.
Outgoing: > 3000 nM

Incoming: Check COCCNc1ncc2c(n1)N(C)CCN(c1cccc(-c3nnc(C)o3)c1)C2=O [Example 99] too.
Outgoing: > 3000 nM

Incoming: Same thing, different compound: CNCCC(OCc1ccc(N2CCN(C)c3nc(SC)ncc3C2=O)cc1)c1cccs1 (stereo not shown) [Example 328]
Outgoing: > 3000 nM

Incoming: What do we get for CN(CC[C@@H](OCc1cccc(N2CCN(C)c3nc(N)ncc3C2=O)c1)c1ccccc1)C(=O)OC(C)(C)C [Example 130] ?
Outgoing: > 3000 nM

====

Ki reference
- assay-target: human norepinephrine transporter (NET) (Homo sapiens (Human))
- Sequence (P23975 whole entry): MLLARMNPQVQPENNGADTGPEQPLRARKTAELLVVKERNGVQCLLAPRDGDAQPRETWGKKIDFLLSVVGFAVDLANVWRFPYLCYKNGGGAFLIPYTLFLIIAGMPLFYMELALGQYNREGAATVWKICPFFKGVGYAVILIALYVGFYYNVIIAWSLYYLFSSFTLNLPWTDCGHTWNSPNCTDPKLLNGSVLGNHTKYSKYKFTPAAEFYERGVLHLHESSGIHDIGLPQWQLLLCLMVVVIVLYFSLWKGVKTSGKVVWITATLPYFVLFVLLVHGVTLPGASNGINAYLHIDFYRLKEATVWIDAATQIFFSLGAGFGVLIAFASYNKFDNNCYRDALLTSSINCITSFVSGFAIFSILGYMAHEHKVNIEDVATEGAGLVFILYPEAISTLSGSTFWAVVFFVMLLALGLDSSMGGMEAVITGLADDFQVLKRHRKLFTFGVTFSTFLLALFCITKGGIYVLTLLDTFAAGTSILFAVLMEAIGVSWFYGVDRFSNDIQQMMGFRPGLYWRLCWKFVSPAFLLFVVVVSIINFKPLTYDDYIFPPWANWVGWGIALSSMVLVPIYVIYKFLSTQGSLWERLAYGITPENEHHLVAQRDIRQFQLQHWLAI
- test-description: Binding assay to human norepinephrine transporter (NET) ([3H]-Nisoxetin)
- protocol-conditions: Table 2, dual compounds; [3H]-Nisoxetin binding

Reference set (3 entries):
CNCCC(Oc1ccc(CN2CCN(C)c3nc(SC)ncc3C2=O)cc1)c1ccccc1 (stereo not shown) [Example 369] :: < 100 nM
CCNc1ncc2c(n1)N(C)CCN(c1cccc(-n3cc(CN(C)Cc4ccc(F)cc4)nn3)c1)C2=O [Example 287] :: < 100 nM
CNCCC(OCc1cccc(N2CCN(C)c3nc(N(C)Cc4ccccn4)ncc3C2=O)c1)c1ccccc1 (stereo not shown) [Example 336] :: 100 to 500 nM

// next entry
Incoming: Returns the measured Ki for the input compound. Input: CCNc1ncc2c(n1)N(C)CCN(Cc1ccc(O[C@@H](CCNC)c3ccccc3)cc1)C2=O [Example 414]
Outgoing: < 100 nM

====

- assay-target: human α2δ-1 subunit of Cav2.2 calcium channel (Homo sapiens (Human), UniProt P54289)
- test-description: Binding assay to human α2δ-1 subunit of Cav2.2 calcium channel ([3H]-Gabapentin)
- protocol-conditions: Table 2, dual compounds; [3H]-Gabapentin binding; read-out: Ki (nM) α2δ-1
assay-readout: Ki

For orientation, consider the following solved cases.
CCNc1ncc2c(n1)N(C)CCN(Cc1ccc(O[C@H](CCNC)c3ccccc3)cc1)C2=O :: 500 to 3000 nM
CNCC[C@@H](OCc1cccc(N2CCN(C)c3nc(C)ncc3C2=O)c1)c1ccccc1 :: 100 to 500 nM
CCNc1ncc2c(n1)N(C)CCN(c1cccc(OCCN(C)CCc3ccccc3)c1)C2=O :: 100 to 500 nM

Incoming: Data request, read-out Ki, for CCNc1ncc2c(n1)N(C)CCN(c1cccc(CO[C@H](CCN(C)C)c3ccccc3)c1)C2=O
Outgoing: 500 to 3000 nM

Incoming: Try this compound too: CCNc1ncc2c(n1)N(C)CCN(Cc1ccc(COC(CNC)c3ccccc3)cc1)C2=O (centres unmarked)
Outgoing: 500 to 3000 nM

====

- assay-target: human α2δ-1 subunit of Cav2.2 calcium channel (Homo sapiens (Human), UniProt P54289)
- test-description: Binding assay to human α2δ-1 subunit of Cav2.2 calcium channel ([3H]-Gabapentin)
- protocol-conditions: Table 2, dual compounds; [3H]-Gabapentin binding; read-out: Ki (nM) α2δ-1
assay-readout: Ki

CCNc1ncc2c(n1)N(C)CCN(c1ccc(COC(CCNC)c3cccs3)cc1)C2=O (centres unmarked) :: > 3000 nM
CNCCC(OCc1cccc(CN2CCN(C)c3nc(SC)ncc3C2=O)c1)c1ccccc1 (centres unmarked) :: > 3000 nM
CCc1ncc2c(n1)N(C)CCN(Cc1ccc(OC(CCNC)c3ccccc3)cc1)C2=O (centres unmarked) :: 500 to 3000 nM
CNCCC(Oc1cccc(CN2CCN(C)c3nc(SC)ncc3C2=O)c1)c1ccccc1 (centres unmarked) :: > 3000 nM
CCc1ncc2c(n1)N(C)CCN(c1cccc(CO[C@H](CCNC)c3ccccc3)c1)C2=O :: 500 to 3000 nM

Incoming: Would you kindly share the measured Ki for CCNc1ncc2c(n1)N(C)CCN(c1cccc(COC3(c4ccccc4)CCNCC3)c1)C2=O ?
Outgoing: 500 to 3000 nM

Incoming: What do you get for CCNc1ncc2c(n1)N(C)CCN(c1cccc(-n3cc(CN(C)Cc4ccccn4)nn3)c1)C2=O ?
Outgoing: 500 to 3000 nM

Incoming: Now this one: CCNc1ncc2c(n1)N(C)CCN(c1cccc(OC(CN(C)C)c3ccccc3)c1)C2=O (centres unmarked)
Outgoing: > 3000 nM

Incoming: Record: CNCCC(OCc1cccc(N2CCN(C)c3nc(N(C)Cc4ccccn4)ncc3C2=O)c1)c1ccccc1 (centres unmarked)
Outgoing: 500 to 3000 nM

Incoming: Ok, now CNCC[C@H](Oc1cccc(N2CCN(C)c3nc(SC)ncc3C2=O)c1)c1ccccc1
Outgoing: > 3000 nM

Incoming: Now this one: CCNc1ncc2c(n1)N(C)CCN(Cc1ccc(O[C@@H](CCNC)c3ccccc3)cc1)C2=O
Outgoing: 500 to 3000 nM
